Data credit: ChEMBL document CHEMBL1157554

TEST: Cytotoxicity against GFP expressing human CEM cells after 48 to 72 hrs by MTT assay
Type: cell-based, CCRF-CEM
READOUT KIND: CC50 (µM)
I only need the number, in µM, no unit after it.

// lookup CC50 for CC(C)CC(=O)c1c(O)c(C(=O)CC(C)C)c(O)c(C(c2ccccn2)c2c(O)c(C(=O)CC(C)C)c(O)c(C(=O)CC(C)C)c2O)c1O 38.1

Cool, now CC(=O)c1c(O)c(C(C)=O)c(O)c(C(c2ccco2)c2c(O)c(C(C)=O)c(O)c(C(C)=O)c2O)c1O 61.2

Cool, now CC(=O)c1c(O)c(C(C)=O)c(O)c(C(c2c(O)c(C(C)=O)c(O)c(C(C)=O)c2O)C2CCCCC2)c1O 58.9
